Assay notes: Plasma concentration in DBA/1 mouse at 15 mg/kg, po administered once daily for 6 days and measured at 8 hrs
Type: ADME, organism-based
Experimental setup: time 6 day
Observation type: concentration at 144 h (ng/mL)

>>> numeric_value("Cc1nc(NC(=O)NC(=O)C(C)(C)C)ccc1Oc1ccnc(-c2cnn(C)c2)c1")
1350

* * *

Assay notes: Plasma concentration in DBA/1 mouse at 15 mg/kg, po administered once daily for 6 days and measured at 18 hrs
Format: ADME, organism-based
Experimental setup: time 6 day
Observation type: concentration at 144 h (ng/mL)

>>> numeric_value("Cc1nc(NC(=O)NC(=O)C(C)(C)C)ccc1Oc1ccnc(-c2cnn(C)c2)c1")
125
